# System: HCI09 (cells of a triple-negative luminal androgen receptor type breast cancer xenograft);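 further: PDX cells carrying CMV promoter-driven luciferase, viability read as total photon flux per second by IVIS imaging following D-luciferin, vehicle control 0.1% DMSO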
# PROTOCOL: cell viability (% of vehicle); higher = less cytotoxic
# CONDITION_PARAMETERS: 10 µM; 72 h
OBSERVED_PROPERTY: cell viability
Enter the number alone.

Query: cell viability; subject: CO/N=C(\C(=O)N[C@@H]1C(=O)N2C(C(=O)O)=C(CSc3nc(=O)c(O)nn3C)CS[C@H]12)c1csc(N)n1 [Ceftriaxone Sodium Trihydrate]
98.6

New cases:
Query: cell viability; subject: CC(=O)OC1CC2CCC3C(CCC4(C)C3CC([N+]3(C)CCCCC3)C4OC(C)=O)C2(C)CC1N1CCCCC1.[Br-] (centres undefined) [Vecuronium Bromide]
90.5

Proceed to Cc1ccc(S(=O)(=O)NC(=O)NN2CC3CCCC3C2)cc1 (centres undefined) [Gliclazide]
90.8

Proceed to "COc1c2occc2cc2ccc(=O)oc12"
99.5
